# selectivity ratio annotations
procedure.summary: Therapeutic index, ratio of CC50 for human TZM-bl cells to IC50 for HIV1
Format: cell-based
test.conditions: read-out: Ratio CC50/IC50
Just the number, please.

Previously resolved entries follow.
compound=C=C1CC[C@@H]2[C@](C)(COC(=O)NS(=O)(=O)c3ccc(C)cc3)[C@H](O)CC[C@@]2(C)[C@@H]1C/C=C1/C(=O)OC[C@H]1O result=978
compound="C=C1CC[C@@H]2[C@]3(C)COC(c4ccc(Cl)cc4)O[C@@H]3CC[C@@]2(C)[C@@H]1C/C=C1/C(=O)OC[C@H]1O (some centres undefined)" result=44
compound="C=C1CC[C@@H]2[C@]3(C)COC(c4ccc(O)c(OC)c4)O[C@@H]3CC[C@@]2(C)[C@@H]1C/C=C1/C(=O)OC[C@H]1O (some centres undefined)" result=10

As a next step, examine the compound that follows.
Would you mind telling me what selectivity ratio value was observed for "C=C1CC[C@@H]2[C@](C)(CO)[C@H](O)CC[C@@]2(C)[C@@H]1C/C=C1/C(=O)OC[C@H]1OC(=O)c1ccccc1O" ?
12
